Assay: soluble fraction after stress (log2 fold change); higher = more stays soluble; pooled small domains, quantitative proteomics;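 also: 20 min heating vs room temperature control held 20 min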
Details: stress: 75 degC
The entries below come with measured soluble fraction (log2) values attached.
// return a plain number; no unit text

Below, 4 sequences whose answers are already recorded.
> print(dat)
                              sequence.data  observed.result
1  HMDKNLQYADTPKGKLREYIKNLPNGSTVNRQKLAEEFGIKKQSMGTVTEVFQEFPDKNFKFVNP          -0.0476
2  HMKSIEVPNLINMTLRKAKIELIDNEFNLDTVIYEYNPNIREGRVSLQIPESGTILKSGSNISIHISKGIP             -1.6
3  HMERPEVVAYRLAYASAESLRPALGLVASPSDLEIDERTNTLIVRAVPSVQERVAELVASLDI           -0.492
4  HMTQQYVEWKVYNVTTIKNKYGFRVKLIFQDGSDATQQKGGFTSKKAAEQARTEVIGQLYSNTYVVY            -4.59

// below: soluble fraction (log2) requested for another sequence
Recorded soluble fraction (log2) for HMKLSALRDKIKEHLLRQIQNGELQVGKTINLAALSRVTGISVTPIREALTQLEQAQVIQAVPNRGFVVA , please? -0.418
